Assay: RPMI8226 myeloma cell viability, profiling panel, resazurin fluorescence, basal, 24 h, PK04 Diversity Set (AID 1180);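 further: RPMI8826 multiple myeloma cell line at 5000 cells per well; test concentration not given here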
Conditions: higher = more signal

| molecule | z-score |
| --- | --- |
| CCCCNC(=O)c1ccc(C#C[Si](C)(C)C)c(OC(C)=O)c1 | 0.0873 |
| COC(=O)Cn1c(C(=O)N(C)C)cc2c1C[C@H]1CN(C(=O)c3ccccc3)[C@@](Cc3ccc(OC)cc3)(C(=O)OC)[C@@H]21 | -0.876 |
| COc1ccc(CCNC(=O)[C@@]2(Sc3ccc(C)cc3)CC(=O)N(C(C)C)[C@@H]2c2ccc(CO)cc2)cc1 | -0.218 |
| CN1C(=O)C2C=CC(C(O)c3ccc(-c4ccccc4)s3)N(Nc3ccccc3)C2C1=O (centres undefined) | -0.985 |
